# System name: Rap guanine nucleotide exchange factor 3 (Homo sapiens) (UniProt O95398)
# Sequence (O95398 whole entry, looked up): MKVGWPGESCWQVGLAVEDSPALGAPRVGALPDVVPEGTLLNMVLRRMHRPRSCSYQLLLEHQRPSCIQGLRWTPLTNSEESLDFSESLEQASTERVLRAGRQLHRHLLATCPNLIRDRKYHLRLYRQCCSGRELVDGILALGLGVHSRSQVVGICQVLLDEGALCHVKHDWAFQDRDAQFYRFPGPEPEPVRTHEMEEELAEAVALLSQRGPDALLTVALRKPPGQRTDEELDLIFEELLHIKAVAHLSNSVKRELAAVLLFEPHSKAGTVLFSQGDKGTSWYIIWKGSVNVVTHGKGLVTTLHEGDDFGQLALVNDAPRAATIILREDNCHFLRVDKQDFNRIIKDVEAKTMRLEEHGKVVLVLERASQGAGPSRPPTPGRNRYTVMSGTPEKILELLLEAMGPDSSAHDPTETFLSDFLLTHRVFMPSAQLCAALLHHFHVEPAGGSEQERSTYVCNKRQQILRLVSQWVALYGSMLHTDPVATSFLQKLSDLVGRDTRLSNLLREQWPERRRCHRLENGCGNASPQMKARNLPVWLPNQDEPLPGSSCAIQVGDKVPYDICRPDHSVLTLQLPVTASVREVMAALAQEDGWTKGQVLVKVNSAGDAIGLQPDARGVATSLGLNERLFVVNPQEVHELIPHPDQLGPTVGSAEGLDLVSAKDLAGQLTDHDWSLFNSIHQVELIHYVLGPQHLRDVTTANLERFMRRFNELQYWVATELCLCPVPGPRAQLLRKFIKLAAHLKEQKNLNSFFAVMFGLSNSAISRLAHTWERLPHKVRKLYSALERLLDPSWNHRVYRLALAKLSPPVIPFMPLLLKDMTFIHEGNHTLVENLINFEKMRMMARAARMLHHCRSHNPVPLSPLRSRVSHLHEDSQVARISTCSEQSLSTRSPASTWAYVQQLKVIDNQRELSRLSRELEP
# Protocol: Confirmatory qHTS for agonist of cAMP-regulated guanine nucleotide exchange factor 3 (EPAC1) (AID 1645881); note: nearly all actives have a fitted effect of over 75% in size; note: potency is the fitted concentration of half-maximal effect;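 for activation: EPAC1 catalysed release of BODIPY-GDP from Rap1B seen as fluorescence loss; 100% = effect of cAMP agonist control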
# Test parameters: EPAC1 Rap1B BODIPY-GDP exchange fluorescence; series mostly up to 154 µM
Results filed as inconclusive are left out. Activity calls are given as the source filed them. Calls come from the whole dose curve; as a rule, active = well fitted activation curve with a large enough effect; inconclusive = small, poorly fitted or top-dose-only effect; inactive = no such curve, though single readings can be large or run the other way.
Measurement name: Potency

Observe how each entry below is paired with its result.
{"Smiles code": "CCc1nnc(NC(=O)c2cc(-c3ccco3)nc3ccccc23)s1", "Measurement name": "Potency", "Result": "inactive"}
{"Smiles code": "COc1ccccc1C(=O)NC(=O)Cn1nc(C)c([N+](=O)[O-])c1C", "Measurement name": "Potency", "Result": "inactive"}
{"Smiles code": "COc1cc(/C=C2\\SC(=O)N(CC(=O)Nc3cccc(C)c3)C2=O)cc([N+](=O)[O-])c1O", "Measurement name": "Potency", "Result": "inactive"}
{"Smiles code": "CCN(CC)c1nc(C)nc2c1sc(=S)n2C", "Measurement name": "Potency", "Result": "inactive"}

Now look at this entry.
Ask: # lookup: Potency of CCOC(=O)c1c(NC(=O)c2ccc(S(=O)(=O)N(C)C3CCCCC3)cc2)sc2c1CCN(C(C)C)C2
Reply: 89.1 µM (active)

* * *

# System name: Rap guanine nucleotide exchange factor 3 (Homo sapiens)
# Protocol: Counterscreen qHTS for antagonist of cAMP-regulated guanine nucleotide exchange factor 3 (EPAC1) (AID 1645888);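 note: fluorescence loss as bound BODIPY-GDP is released from Rap1B; % of control where 0% means no effect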
# Test parameters: Rap1B-BODIPY-GDP nucleotide exchange, fluorescence; series mostly up to 154 µM
Results filed as inconclusive are left out. The source made the active and inactive calls. Calls follow the shape of the dose curve; as a rule, active = well fitted inhibition curve with a large enough effect; inconclusive = small, poorly fitted or top-dose-only effect; inactive = no such curve, though single readings can be large or run the other way.
Measurement name: activity change, negative = inhibition

Observe how each entry below is paired with its result.
{"Molecule": "COC(=O)c1ccccc1NC(=O)CN1C(=O)COc2ccc(Cl)cc21", "activity change, negative = inhibition": "inactive"}
{"Molecule": "CC(=Cc1ccccc1)C=C1SC(=S)N(CCCC(=O)Nc2ccc(C(=O)O)c(O)c2)C1=O", "activity change, negative = inhibition": "inactive"}
{"Molecule": "O=c1oc(-c2ccccc2NS(=O)(=O)c2ccccc2)nc2ccccc12", "activity change, negative = inhibition": "2.74% [at 30.8 µM] (inactive)"}
{"Molecule": "O=C(COC(=O)c1ccc2c(c1)OCO2)NC1CCS(=O)(=O)C1 (stereo unspecified)", "activity change, negative = inhibition": "inactive"}
{"Molecule": "Cc1ccc(S(=O)(=O)/N=C2/NC(=O)/C(=C/c3ccccc3)S2)cc1", "activity change, negative = inhibition": "inactive"}

Ask: # lookup: activity change, negative = inhibition of N#Cc1c(-c2ccccc2)nc(SCC(=O)N2c3ccccc3Sc3ccccc32)[nH]c1=O
Reply: inactive

Ask: # lookup: activity change, negative = inhibition of COc1ccc(C/C(C)=N/NC(=O)c2cccnc2)cc1
Reply: -16% [at 30.8 µM] (inactive)

Ask: # lookup: activity change, negative = inhibition of O=C(O)CN1C(=O)/C(=C\c2cccc(OCc3ccc(Cl)cc3)c2)SC1=S
Reply: inactive

Ask: # lookup: activity change, negative = inhibition of Cc1cccc(NC(=S)NC(=O)c2oc3ccccc3c2C)n1
Reply: inactive

Ask: # lookup: activity change, negative = inhibition of O=C(/C=C/c1ccccc1)c1cc(Br)ccc(=O)c1O
Reply: inactive

Ask: # lookup: activity change, negative = inhibition of Cc1cc(Nc2ccccc2)n(-c2nc3ccccc3[nH]2)n1
Reply: -0.198% [at 30.8 µM] (inactive)

* * *

# Protocol: qHTS Assay for Lipid Storage Modulators (AID 1519)
# Test parameters: Drosophila S3 cells, BODIPY lipid droplet/cell ratio, laser cytometry; measured here: cell count channel max response; cells loaded with oleic acid
Inconclusive results are not listed.
Measurement name: max response (%)
Provide only the numeric value, understood in %.

Ask: # lookup: max response of O[C@@](CCN1CCCC1)(c1ccccc1)C1CCCCC1
Reply: -8.38

Ask: # lookup: max response of Cc1cc2ccc(=O)oc2cc1OC[C@@H](O)C(C)(C)O
Reply: 13

Ask: # lookup: max response of COc1c2ccoc2nc2c(OC)c(OCC(O)C(C)(C)O)ccc12 (stereo not given)
Reply: 16.9

Ask: # lookup: max response of O=C(O)CCCC[C@H]1SC[C@H]2NC(=O)N[C@@H]21
Reply: 5.29

Ask: # lookup: max response of C[C@@H](CNC1CCCCC1)OC(=O)c1ccccc1
Reply: -16.8

Ask: # lookup: max response of NC[C@@H]1O[C@H](O[C@@H]2[C@H](O[C@@H]3O[C@H](CO)[C@@H](O)[C@@H]3O)[C@@H](O)[C@@H](N)C[C@H]2N)[C@@H](N)[C@H](O)[C@@H]1O
Reply: -8.12

Ask: # lookup: max response of NC(=O)N/N=C\c1ccc([N+](=O)[O-])o1
Reply: -2.81

Ask: # lookup: max response of O=C(/C=C/c1ccccc1)c1ccc(O[C@H]2OC(CO)C(O)C(O)C2O)cc1O (stereo not given in full)
Reply: 18.3

Ask: # lookup: max response of C[C@]12CCC3c4ccc(OC(=O)c5ccccc5)cc4CCC3C1CCC2=O (stereo not given in full)
Reply: 14.4

Ask: # lookup: max response of C=C1CC/C=C(\C)CC[C@@H]2[C@@H]1CC2(C)C
Reply: -19.4

* * *

# Test system: JCK
# Protocol: qHTS profiling for inhibitors of Plasmodium falciparum proliferation (AID 504749); note: nearly all actives have a fitted effect of over 60% in size
# Test parameters: P. falciparum in erythrocytes, SYBR Green DNA, 72 h; series mostly up to 12.8 µM
Records with an inconclusive call do not appear. The source made the active and inactive calls. Calls follow the shape of the dose curve; as a rule, active = well fitted inhibition curve with a large enough effect; inconclusive = small, poorly fitted or top-dose-only effect; inactive = flat fitted curve, though single readings scatter.
In this exercise, the only acceptable responses are active, inactive

Ask: What outcome does the record of this test show for C[C@H]1CS(=O)(=O)CCN1/N=C\c1ccc([N+](=O)[O-])o1 ?
Reply: inactive

Ask: What outcome does the record of this test show for O=C(O)COCCN1CCN([C@@H](c2ccccc2)c2ccc(Cl)cc2)CC1 ?
Reply: inactive

Ask: What outcome does the record of this test show for Cc1ccc(S(=O)(=O)NC(=O)NN2C[C@H]3CCC[C@@H]3C2)cc1 ?
Reply: inactive

Ask: What outcome does the record of this test show for C[C@H](O)Cn1cnc2c1c(=O)n(C)c(=O)n2C ?
Reply: inactive

Ask: What outcome does the record of this test show for CC(C)(C)NC[C@@H](O)COc1ccccc1C1CCCC1 ?
Reply: active

Ask: What outcome does the record of this test show for CCCCC[C@H](O)/C=C\[C@H]1[C@H](C/C=C\CCCC(=O)O)[C@@H](O)C[C@H]1O (tested in a mixture with another compound) ?
Reply: inactive

Ask: What outcome does the record of this test show for CN1CCO[C@H](c2ccccc2)c2ccccc2C1 ?
Reply: inactive

Ask: What outcome does the record of this test show for CC(=O)O[C@H]1C[C@@]2(C)[C@H](C[C@@H](O)[C@H]3[C@@]4(C)CC[C@@H](O)[C@@H](C)[C@H]4CC[C@@]32C)C1=C(CCC=C(C)C)C(=O)O ?
Reply: inactive

Ask: What outcome does the record of this test show for COc1ccc2cc(C(C)CO)ccc2c1 (stereo unspecified) ?
Reply: inactive

Ask: What outcome does the record of this test show for NC(C(=O)O)[C@@H]1CC(Cl)=NO1 (stereo partly specified) ?
Reply: active

Ask: What outcome does the record of this test show for CO[C@]1(NC(=O)[C@H](C(=O)O)c2ccc(O)cc2)C(=O)N2C(C(=O)O)=C(CSc3nnnn3C)CO[C@H]21 ?
Reply: inactive

Ask: What outcome does the record of this test show for CC(=O)[C@@]1(O)CC[C@H]2[C@H]3C[C@@H](C)C4=CC(=O)C=C[C@]4(C)[C@@]3(F)[C@@H](O)C[C@]21C ?
Reply: inactive

Ask: What outcome does the record of this test show for CNC[C@H](O)c1ccc(OC(=O)C(C)(C)C)c(OC(=O)C(C)(C)C)c1 ?
Reply: inactive

Ask: What outcome does the record of this test show for NC(=O)N[C@H]1NC(=O)NC1=O ?
Reply: inactive

Ask: What outcome does the record of this test show for Cc1ncc([N+](=O)[O-])n1C[C@H](O)CCl ?
Reply: inactive

Ask: What outcome does the record of this test show for C[C@@H](C(=O)O)c1ccc(C(=O)c2ccccc2)s1 ?
Reply: inactive

Ask: What outcome does the record of this test show for CCC(=O)[C@@]1(C)[C@H](C)C[C@@H]2[C@@H]3CCC4=CC(=O)C=C[C@@]4(C)[C@H]3[C@H](O)C[C@]21C ?
Reply: inactive

Ask: What outcome does the record of this test show for CC1(C)[C@@H](OC(=O)CCC(=O)O)CC[C@@]2(C)[C@H]1CC[C@@]1(C)[C@H]2C(=O)C=C2[C@H]3C[C@](C)(C(=O)O)CC[C@]3(C)CC[C@@]21C ?
Reply: inactive

Ask: What outcome does the record of this test show for C1CCN2C[C@@H]3C[C@@H](CN4CCCC[C@H]34)[C@H]2C1 ?
Reply: inactive

Ask: What outcome does the record of this test show for COc1cc2nc(N3CCN(C(=O)[C@@H]4CCCO4)CC3)nc(N)c2cc1OC ?
Reply: inactive

Ask: What outcome does the record of this test show for CO[C@@H]1C[C@H](O[C@H]2[C@@H](C)[C@H](O[C@@H]3O[C@@H](C)C[C@@H](N(C)C)[C@@H]3OC(C)=O)[C@H](C)C[C@]3(CO3)C(=O)[C@H](C)[C@H](OC(C)=O)[C@H](C)[C@H](C)OC(=O)[C@@H]2C)O[C@H](C)[C@@H]1OC(C)=O ?
Reply: inactive

Ask: What outcome does the record of this test show for NS(=O)(=O)c1cc2c(cc1Cl)N[C@@H](CC1CCCC1)NS2(=O)=O ?
Reply: inactive

Ask: What outcome does the record of this test show for CC(=O)N[C@H](CC(C)C)C(=O)O ?
Reply: inactive

Ask: What outcome does the record of this test show for CCOC(=O)O[C@]1(C(=O)COC(=O)CC)CC[C@@H]2[C@@H]3CCC4=CC(=O)C=C[C@@]4(C)[C@H]3[C@H](O)C[C@]21C ?
Reply: inactive

Ask: What outcome does the record of this test show for CC1(C)S[C@H]2C(NC(=O)[C@@H](N)c3ccc(O)cc3)C(=O)N2[C@@H]1C(=O)O (stereo partly specified) ?
Reply: inactive

Ask: What outcome does the record of this test show for CC[N+](CC)(CC)CC[C@](O)(c1ccccc1)C1CCCCC1 ?
Reply: inactive

Ask: What outcome does the record of this test show for CCCC(=O)O[C@]1(C(=O)CO)CCC2[C@@H]3CCC4=CC(=O)CC[C@]4(C)C3C(O)C[C@]21C (stereo partly specified) ?
Reply: inactive

Ask: What outcome does the record of this test show for CN(C)CCCOC1C(C(O)CO)OC2OC(C)(C)O[C@@H]21 (stereo partly specified) ?
Reply: inactive

Ask: What outcome does the record of this test show for CO[C@]12C(COC(N)=O)C3=C(C(=O)C(C)=C(N)C3=O)N1CC1NC12 (stereo partly specified) ?
Reply: active

Ask: What outcome does the record of this test show for NCC1CCC(N)C(O[C@@H]2C(O)[C@H](O[C@H]3OC(CO)C(O)C(N)C3O)[C@@H](N)C[C@H]2N)O1 (stereo partly specified) ?
Reply: inactive

Ask: What outcome does the record of this test show for O=C(OC[C@@H](O)CO)c1ccccc1Nc1ccnc2cc(Cl)ccc12 ?
Reply: inactive

Ask: What outcome does the record of this test show for C=C1c2c(Cl)ccc(O)c2C(O)=C2C(=O)[C@@]3(O)C(O)=C(C(N)=O)C(=O)[C@@H](N(C)C)[C@@H]3[C@@H](O)[C@H]12 ?
Reply: inactive

Ask: What outcome does the record of this test show for C[C@H](C(=O)O)c1cccc(Oc2ccccc2)c1 ?
Reply: inactive

Ask: What outcome does the record of this test show for COc1cc(N[C@@H](C)CCCN)c2ncccc2c1 ?
Reply: active

Ask: What outcome does the record of this test show for CC(=O)[C@@H]1CC[C@@H]2[C@@H]3C[C@H](C)C4=CC(=O)CC[C@@]4(C)[C@H]3[C@H](O)C[C@]21C ?
Reply: inactive

Ask: What outcome does the record of this test show for C#C[C@]1(O)CC[C@@H]2[C@H]3CCC4=CCCC[C@@H]4[C@@H]3CC[C@@]21C ?
Reply: inactive
